Sourced from the supplement of paper PMC7801607

Tested on: Plasmodium falciparum NF54 stage IV/V gametocytes
assay.text: % inhibition of gametocyte viability (ATP bioluminescence); higher = more inhibition
condition.context: 5 µM; 24 h
endpoint.label: % inhibition of gametocyte viability

For each of the compounds below, state % inhibition of gametocyte viability.
1. Nc1nc(C(F)(F)F)cc2c1[nH]c(=O)n2Cc1ccccc1
2. CC(=O)NC[C@H]1CN(c2ccc(N3CCSCC3)c(F)c2)C(=O)O1
3. CO[C@@]1(NC(=O)Cc2cccs2)C(=O)N2C(C(=O)O)=C(COC(N)=O)CS[C@@H]21
4. COc1c(NC(=O)[C@H]2CC[C@@H](COc3ccc([N+](=O)[O-])cc3)CC2)c(F)cc2c(=O)c(C(=O)O)cn(C3CC3)c12
5. CC(N)C12CC3CC(CC(C3)C1)C2 (centres undefined)
6. CC1(C)CC(NC(=O)C(=O)Nc2ccc(Cl)cc2)CC(C)(C)N1
7. CC1CN(c2ncnc3c2c(-c2ccccc2)cn3-c2ccc(F)cc2)CC(C)O1 (centres undefined)
8. CC(=O)Nc1cc(NS(=O)(=O)c2ccc(Cl)cc2)cc2c(Cl)n[nH]c12

[A]
1: < 0%; 2: < 0%; 3: < 0%; 4: < 0%; 5: 2.98%; 6: 3.94%; 7: < 0%; 8: 3.03%

Count: 4. Required value per item: % inhibition of gametocyte viability.
1. [N-]=[N+]=N[C@H]1C[C@H](n2ccc(=O)[nH]c2=O)O[C@@H]1CO
2. O=C(O)[C@H]1C2CCC(CC2)[C@@H]1Nc1nc(-c2c[nH]c3ncc(F)cc23)ncc1F
3. CCOCc1nc2c(N)nc3ccccc3c2n1CC(C)(C)O
4. NC(=O)[C@@H]1CC[C@@H]2CN1C(=O)N2OS(=O)(=O)O

[A]
1. < 0%
2. 2.93%
3. < 0%
4. < 0%

Need % inhibition of gametocyte viability for each of these compounds.
1. Cc1cc(Nc2ccc(F)cc2)nc(SCc2nc3ccccc3[nH]2)n1
2. O=C(CCc1ccc2c(c1)OCO2)NCc1ccc(-c2ccccc2F)cc1
3. O=C(Nc1ccc(Cl)c(C(F)(F)F)c1)C(CCCl)C(=O)Nc1ccc(Cl)c(C(F)(F)F)c1
4. CC[C@@]1(O)C(=O)OCc2c1cc1n(c2=O)Cc2cc3c([N+](=O)[O-])cccc3nc2-1
5. Cc1onc(-c2ccccc2Cl)c1C(=O)N[C@@H]1C(=O)N2[C@@H]1SC(C)(C)[C@@H]2C(=O)O
6. O=[N+]([O-])c1cn2c(n1)OC[C@@H](OCc1ccc(OC(F)(F)F)cc1)C2
7. O=S(=O)(Nc1cccc2cccnc12)c1ccccc1

[A]
1. 33.8%
2. < 0%
3. < 0%
4. < 0%
5. < 0%
6. < 0%
7. < 0%

---

System: Plasmodium falciparum NF54 stage IV/V gametocytes
assay.text: % inhibition of gametocyte viability (luciferase reporter); higher = more inhibition
condition.context: 5 µM; 48 h
Category key, based on recorded % inhibition of gametocyte viability: bucket A = under 5%, bucket B = from 5% up to 10%, bucket C = 10% and over

- CC(Cc1ccccc1)C(=O)Nc1ccc(Cl)cc1C(=O)O (stereo not given): bucket C
- c1cnc(NCc2ccc(CNc3ncccn3)cc2)nc1: bucket A
- Clc1cc2nc(C3CCNCC3)n(Cc3ccc(CNCCc4cnc[nH]4)cc3)c2cc1Cl: bucket A
- Oc1ccc2[nH]c(-c3ccccc3)nc2c1: bucket A

[Q] Input O=C(N[C@H](Cc1cccc2ccccc12)C(=O)NCCc1c[nH]cn1)C1Cc2ccccc2C1 ; output its category
[A] bucket A

[Q] Which band does N=C(N)NCCCCC(=O)Nc1cc(C(F)(F)F)cc(NC(=O)c2cc(C(=O)Nc3cc(C(F)(F)F)cc(NC(=O)CCCCNC(=N)N)c3O[C@@H]3CCNC3)ncn2)c1O[C@@H]1CCNC1 fall in?
[A] bucket C

[Q] Place this molecule in its band: COc1ccc2sc3c(c2c1)NC(C)CNC3=O (stereo not given)
[A] bucket A

[Q] Consider COc1cc(Cc2cc(N)nc(N)n2)cc(OC)c1OC . To which % inhibition of gametocyte viability class does it belong?
[A] bucket A

[Q] Which class does Cn1cc(NC(=O)c2cc(NC(=O)c3ccc(/C=C/c4cnc5ccccc5c4)cc3)cn2C)cc1C(=O)NCCN1CCOCC1 fall in?
[A] bucket C

[Q] Could you tell me which band COc1c(NC(=O)[C@H]2CC[C@@H](COc3ccc([N+](=O)[O-])cc3)CC2)c(F)cc2c(=O)c(C(=O)O)cn(C3CC3)c12 belongs to?
[A] bucket B

---

Tested on: HepG2-A16-CD81;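 note: HepG2-A16-CD81 hepatoma cells plated as in the liver-stage assay but without sporozoites, with DMSO wells as negative and 25 µM puromycin as positive control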
assay.text: % inhibition of HepG2 viability (CellTiter-Glo); higher = more toxic
condition.context: 5 µM
Please go through the items and note down their % inhibition of HepG2 viability.
Give bare numbers, in %.

• CC(C)(C)NC(=O)[C@@H]1CN(Cc2cnc3occc3c2)CCN1C[C@@H](O)C[C@@H](Cc1ccccc1)C(=O)N[C@H]1c2ccccc2C[C@H]1O = 4.33
• N[C@@H]1CN(c2c(F)cc3c(=O)c(C(=O)O)cn([C@@H]4C[C@@H]4F)c3c2Cl)CC12CC2 = -1.55
• CCNC(=O)Nc1cc(-c2ccccc2)c(-c2cncc(C(=O)O)c2)cn1 = -1.59
• CCc1cc(Nc2cc(=O)n(CCN3CCN(C(=O)c4ccccc4)CC3)c(=O)[nH]2)ccc1C = -1.38
• NC1C2CC3CC(C2)CC1C3 (configuration not stated) = -1.51
• C[Si]1(C)CCN(Cc2cc(-c3ccc(Cl)cc3)n(-c3ccc(Cl)cc3)n2)CC1 = 5.65
• CC1CN(c2ncnc3c2c(-c2ccccc2)cn3-c2ccc(F)cc2)CC(C)O1 (configuration not stated) = 6.07
• CCCCc1ccc(S(=O)(=O)Nc2cc(C)on2)cc1 = 15.2
• CC(Cc1ccccc1)C(=O)Nc1ccc(Cl)cc1C(=O)O (configuration not stated) = 5.78
• CCCCCCC1c2ccc(O)cc2Oc2cc(O)ccc21 = 11.4

Provide the reported % inhibition of HepG2 viability of each entry below, same order.
1. O=C(Nc1ccccc1C(=O)O)c1cccc(Oc2ccccc2)c1
2. O=[N+]([O-])c1ccc2c(CCc3c[nH]c4ccccc34)c[nH]c2c1
3. C[C@H](NC(CC(=O)c1ccccc1C(F)(F)F)C(=O)O)c1ccccc1 (some centres not stated)

[A]
1: 6.41; 2: 0.942; 3: 0.323

Give measured % inhibition of HepG2 viability for every item shown.
1. COCCn1cnc2c(=O)[nH]c(Nc3ccccc3)nc21
2. C=CCN(C(=O)OCc1ccc([N+](=O)[O-])cc1)C1CCN(CC[C@](C)(CN(C)S(=O)(=O)c2ccccc2)c2ccccc2)CC1

[A]
[5.25, -6.75]

Below are some compounds; for each one, tell me its % inhibition of HepG2 viability.
1. Nc1nc(=O)c(Br)c(-c2cccc(Cl)c2)[nH]1
2. CC[C@H]1OC(=O)[C@H](C)[C@@H](O[C@H]2C[C@@](C)(OC)[C@@H](O)[C@H](C)O2)[C@H](C)[C@@H](O[C@@H]2O[C@H](C)C[C@H](N(C)C)[C@H]2O)[C@](C)(O)C[C@@H](C)C(=O)[C@H](C)[C@@H](O)[C@]1(C)O
3. Nc1nc(Nc2ccc3nc(-c4ccc(F)cc4)cc(N)c3c2)cc(-c2ccccc2)n1
4. COC1CC2CCC(C)C(O)(O2)C(=O)C(=O)N2CCCCC2C(=O)OC(C(C)CC2CCC(OCCO)C(OC)C2)CC(=O)C(C)/C=C(\C)C(O)C(OC)C(=O)C(C)CC(C)/C=C/C=C/C=C/1C (configuration not stated)
5. COc1ccc(C(C)(C)C)cc1NC(=O)C(=O)c1ccc(OCCN2CCOCC2)c2ccccc12

[A]
[6.4, 3.5, -4.55, 1.51, 1.14]

---

Tested on: Plasmodium falciparum NF54 asexual blood stage
assay.text: % inhibition of asexual blood stage proliferation (pLDH); higher = more inhibition
condition.context: 2 µM; 72 h
# % inhibition of asexual blood stage proliferation >= 40% gives y, anything below gives n

- CCOC(=O)N[C@@H]1CC[C@@H]2[C@@H](C1)C[C@H]1C(=O)O[C@H](C)[C@H]1[C@H]2/C=C/c1ccc(-c2cccc(F)c2)cn1: y
- CCN(CC)CCn1c(=N)n(CC(O)COc2ccc(Cl)cc2Cl)c2ccccc21 (stereo not drawn): y
- NC(=O)c1ccc(I)c([N+](=O)[O-])c1: n

[Q] Quick check, % inhibition of asexual blood stage proliferation >= 40%? O=C(NO)C1(CS(=O)(=O)c2ccc(Oc3ccc(Cl)cc3)cc2)CCOCC1
[A] n

---

Tested on: Plasmodium falciparum NF54 stage IV/V gametocytes
assay.text: % inhibition of gametocyte viability (ATP bioluminescence); higher = more inhibition
condition.context: 1 µM; 24 h
Please go through the items and note down their % inhibition of gametocyte viability.

• Nc1nc(O)c2ncn(COCCO)c2n1 = < 0%
• O=S(=O)(NCB(O)O)c1cc2c(Cl)ccc(Cl)c2s1 = < 0%
• COc1ccccc1NC(=O)c1ccccc1Sc1ccc([N+](=O)[O-])cc1 = 7.24%
• O=C(NNC(=S)Nc1ccc(Cl)cc1)c1ccncc1 = < 0%
• COc1cc(Cc2cnc(N)nc2N)c2c(c1OC)OC(C1CC1)C=C2 (centres undefined) = 1.06%
• OB1OCc2c1ccc(Cl)c2F = < 0%
• O=C(CP(=O)(O)O)NCCc1cccc(Oc2ccccc2)c1 = 2.33%
• O=C(N[C@H](Cc1cccc2ccccc12)C(=O)NCCc1c[nH]cn1)C1Cc2ccccc2C1 = 2.29%

Below are some molecules; for each one, tell me its % inhibition of gametocyte viability.
1. CSc1ccc2c(c1)C(N1CCN(C)CC1)Cc1ccccc1S2 (centres undefined)
2. O=C(N[C@H](CCS)C(=O)N[C@H](Cc1ccccc1)C(=O)O)c1cc2ccccc2[nH]1
3. NC(=O)c1ccc(I)c([N+](=O)[O-])c1
4. Oc1ccc(NCc2ccccc2OCc2ccccc2)cc1
5. CC1(C)[C@H](C(=O)O)N2C(=O)C[C@H]2S1(=O)=O
6. CCCCCc1ccc(C(=O)NCCn2cc(CCCCCc3cnc(N)[nH]3)nn2)cc1

[A]
["20.9%", "< 0%", "< 0%", "< 0%", "< 0%", "< 0%"]
